Readings of CC50 at 24 h for the listed compounds
- test: MTT cytotoxicity testing on Caco-2
- Type: cell-based, human
- settings: human, Caco-2 cells
Please reply with the bare figure in µM and do not write the unit itself.

smiles-string	measure	readout-value
COc1ccc(-c2cc(=O)c3c(OC)c(OC)c(OC)c(OC)c3o2)cc1	CC50 at 24 h	531
C[C@@H]1O[C@@H](O[C@H]2[C@H](Oc3cc(O)c4c(c3)O[C@H](c3ccc(O)cc3)CC4=O)O[C@H](CO)[C@@H](O)[C@@H]2O)[C@H](O)[C@H](O)[C@H]1O	CC50 at 24 h	249

The measured CC50 at 24 h associated with COc1ccc([C@@H]2CC(=O)c3c(O)cc(O)cc3O2)cc1O reads 56.3

###

- Test system: Caco-2 cells
- test: MTT cytotoxicity testing on Caco-2
- Type: cell-based, human
- settings: Caco-2, 24 h exposure, MTT; mean ± S.E.
measure: CC50

Looking up CC[C@H](C)[C@H]1O[C@]2(CC[C@@H]1C)C[C@@H]1C[C@@H](C/C=C(\C)[C@@H](O[C@H]3C[C@H](OC)[C@@H](O[C@H]4C[C@H](OC)[C@@H](O)[C@H](C)O4)[C@H](C)O3)[C@@H](C)/C=C/C=C3\CO[C@@H]4[C@H](O)C(C)=C[C@@H](C(=O)O1)[C@]34O)O2 [IVM, ivermectin, reference compound] , I found its CC50 recorded as 20 µM

###

- test: MTT cytotoxicity testing on HepG2
- Type: cell-based, human
- settings: human, HepG2 cells
measure: CC50 at 24 h

Use these answered entries as a reference point.
molecule	measure	readout-value
COc1ccc([C@@H]2CC(=O)c3c(O)cc(O)cc3O2)cc1O	CC50 at 24 h	> 1000 µM
COc1ccc(-c2cc(=O)c3c(OC)c(OC)c(OC)c(OC)c3o2)cc1	CC50 at 24 h	251 µM
C[C@@H]1O[C@@H](O[C@H]2[C@H](Oc3cc(O)c4c(c3)O[C@H](c3ccc(O)cc3)CC4=O)O[C@H](CO)[C@@H](O)[C@@H]2O)[C@H](O)[C@H](O)[C@H]1O	CC50 at 24 h	> 1000 µM
O=c1c(O)c(-c2ccc(O)c(O)c2)oc2cc(O)cc(O)c12	CC50 at 24 h	> 1000 µM
O=c1cc(-c2ccc(O)cc2)oc2cc(O)cc(O)c12	CC50 at 24 h	53.3 µM

Form field CC50 at 24 h, entry CCCSc1ccc2nc(NC(=O)OC)[nH]c2c1 [ABZ, albendazole, reference compound] : > 1000 µM

###

- System: C. elegans N2 strain
- test: In vitro nematocidal
- Parameters: species or system Caenorhabditis elegans
- settings: Caenorhabditis elegans, 72 h
measure: pEC50
Value format note: pEC50 is -log10 of concentration (mol/L); just state the number.

As a guide, the following entries are already answered.
molecule	measure	readout-value
O=c1cc(-c2ccc(O)cc2)oc2cc(O)cc(O)c12 [Apigenin, apigenin]	pEC50	3.66
CCCSc1ccc2nc(NC(=O)OC)[nH]c2c1 [ABZ, albendazole, reference compound]	pEC50	3.17
O=c1c(O)c(-c2ccc(O)c(O)c2)oc2cc(O)cc(O)c12 [Quercetin, quercetin]	pEC50	4.09

Value of pEC50 reported for the molecule COc1ccc([C@@H]2CC(=O)c3c(O)cc(O)cc3O2)cc1O [Hesperetin, hesperetin] is 3.55

###

- test: MTT cytotoxicity testing on Caco-2
- Assay type: cell-based, human
- settings: human, Caco-2 cells
measure: CC50 at 24 h

compound	CC50 at 24 h
CCCSc1ccc2nc(NC(=O)OC)[nH]c2c1 [ABZ, albendazole, reference compound]	> 1000 µM
O=c1cc(-c2ccc(O)cc2)oc2cc(O)cc(O)c12	> 1000 µM

Consider the additional compound presented here.
compound O=c1c(O)c(-c2ccc(O)c(O)c2)oc2cc(O)cc(O)c12 , CC50 at 24 h observed: > 1000 µM
